Origin of the recorded values: the supplement of paper PMC10724198

System: Saccharomyces cerevisiae
Assay: protein stability index of tFT-peptide fusion (C-terminal peptide) (PSI (0-1 scale)); higher = more stable (slower turnover)
Conditions: genetic background: wild type; temperature: 30 C
Let's look at some sequences and their measured protein stability index.
Number, no unit, nothing else.

GKSYWYDSGNMM ... 0.752
ARRFLVRRFILF ... 0.282
CVERVGSTPMDS ... 0.607
VGSSSGRLLYLC ... 0.481
DGCRLCRRFIFG ... 0.669
PSPSVVPASSPP ... 0.669

Could you share which protein stability index value was measured for `VGCRGTIAIGGR` ?
0.683

Could you share which protein stability index value was measured for `IGSRRMDADERV` ?
0.691

Could you share which protein stability index value was measured for `FCCSYLSRGDFL` ?
0.702

Could you share which protein stability index value was measured for `ARLATLSPEMAN` ?
0.729

Could you share which protein stability index value was measured for `RIKRTMNEKIRK` ?
0.68

Could you share which protein stability index value was measured for `PWFCYVQLVVPV` ?
0.309

Could you share which protein stability index value was measured for `DVKNMVWKTIEL` ?
0.675

Could you share which protein stability index value was measured for `GQWCVAAALIER` ?
0.699

Could you share which protein stability index value was measured for `SKGFVIMRAACF` ?
0.572

Could you share which protein stability index value was measured for `RLVNSVAVSFLR` ?
0.697

Could you share which protein stability index value was measured for `PIDHCFPPIPRR` ?
0.737

Could you share which protein stability index value was measured for `NIIQTYITLNEL` ?
0.74

Could you share which protein stability index value was measured for `GSSCRFGDNTVG` ?
0.738

----------
System: Saccharomyces cerevisiae
Assay: protein stability index of tFT-peptide fusion (C-terminal peptide) (PSI (0-1 scale)); higher = more stable (slower turnover)
Conditions: genetic background: cdc34-1; temperature: 37 C
Result type: protein stability index
Number, no unit, nothing else.

Some sequences with recorded protein stability index:
RVFRRFCCVISM ... 0.312
VWVAWLGGAILA ... 0.149
CLFHQFITLLVN ... 0.0942
LCFGMVELMWIY ... 0.418

Request: protein stability index, test system Saccharomyces cerevisiae, entry `RLFLLIECSSGF`
0.451

Request: protein stability index, test system Saccharomyces cerevisiae, entry `ASHLGLGCLVVC`
0.601

Request: protein stability index, test system Saccharomyces cerevisiae, entry `APLFPPPPARSL`
0.652

Request: protein stability index, test system Saccharomyces cerevisiae, entry `VIQNKKKNKITS`
0.599

Request: protein stability index, test system Saccharomyces cerevisiae, entry `FFSLMFVFLTVF`
0.113

Request: protein stability index, test system Saccharomyces cerevisiae, entry `LEGRFLACRGIC`
0.619

Request: protein stability index, test system Saccharomyces cerevisiae, entry `TRHIGQYIHKIT`
0.641

Request: protein stability index, test system Saccharomyces cerevisiae, entry `VMFCRFPLRFGC`
0.662

Request: protein stability index, test system Saccharomyces cerevisiae, entry `IGMVSELLLFYP`
0.721

Request: protein stability index, test system Saccharomyces cerevisiae, entry `HVPPVFQASLSP`
0.675

Request: protein stability index, test system Saccharomyces cerevisiae, entry `FSGFPLTLSPPL`
0.717

Request: protein stability index, test system Saccharomyces cerevisiae, entry `WFSVRQLVFVSG`
0.119

Request: protein stability index, test system Saccharomyces cerevisiae, entry `EVGFHRRWVALS`
0.612

Request: protein stability index, test system Saccharomyces cerevisiae, entry `GVLFHIVLHFMV`
0.24

----------
Test system: Saccharomyces cerevisiae
Test: protein stability index of tFT-peptide fusion (C-terminal peptide) (PSI (0-1 scale)); higher = more stable (slower turnover)
Settings: genetic background: wild type; temperature: 30 C
Result type: protein stability index
Number, no unit, nothing else.

Some sequences with recorded protein stability index:
VTFWISLVYVLV ... 0.16
IMGGLRHRIEVY ... 0.268
FFFFPVYFIFVV ... 0.232
GVCRFFCLVFCS ... 0.441
ICFFQGVVVLFR ... 0.303

Could you share which protein stability index value was measured for `LFLSIFFFHLLF` ?
0.313

Could you share which protein stability index value was measured for `GILILRLILCLF` ?
0.189

Could you share which protein stability index value was measured for `RGSLYLILVLIG` ?
0.163

Could you share which protein stability index value was measured for `LPHPLPFCFSLY` ?
0.451

Could you share which protein stability index value was measured for `GLLLVWAALGFV` ?
0.251

Could you share which protein stability index value was measured for `QWRMLTCLMERL` ?
0.379

----------
Test system: Saccharomyces cerevisiae
Test: protein stability index of tFT-peptide fusion (C-terminal peptide) (PSI (0-1 scale)); higher = more stable (slower turnover)
Conditions: genetic background: wild type; temperature: 30 C
Let's look at some sequences and their measured protein stability index.
Number, no unit, nothing else.

Could you share which protein stability index value was measured for `FCCFGGSFFSLR` ?
0.715

Could you share which protein stability index value was measured for `LHPPLPPLPFSA` ?
0.679

Could you share which protein stability index value was measured for `SWPSLDLVSRMQ` ?
0.676

Could you share which protein stability index value was measured for `SPLLRSRPPPPI` ?
0.749

Could you share which protein stability index value was measured for `RHTVFFCQLLLV` ?
0.238

Could you share which protein stability index value was measured for `SPPRPPAPPLLP` ?
0.676

----------
Tested on: Saccharomyces cerevisiae
Assay: protein stability index of tFT-peptide fusion (C-terminal peptide) (PSI (0-1 scale)); higher = more stable (slower turnover)
Settings: genetic background: wild type; temperature: 37 C
Result type: protein stability index
Number, no unit, nothing else.

Some sequences with recorded protein stability index:
RLVGVRWEVCNL ... 0.863
VSVVLKTQRVVC ... 0.535
GGVWLSVVSWVG ... 0.244
CRLCVFGVWFCG ... 0.541
RDYIAAKLVVCG ... 0.461

# context switch: different sequence, same protein stability index
Could you share which protein stability index value was measured for `LGCLVWGGVWGV` ?
0.727

----------
Let's look at some sequences and their measured protein stability index.
Test system: Saccharomyces cerevisiae
Assay: protein stability index of tFT-peptide fusion (C-terminal peptide) (PSI (0-1 scale)); higher = more stable (slower turnover)
Settings: genetic background: das1 deletion; temperature: 30 C

Some sequences with recorded protein stability index:
TISNWIQETKEV [STO1 C-terminal 12 aa] ... 0.706
QPSSASCLFILI [AHT1 C-terminal 12 aa] ... 0.716
ESTHKEAMGEKN [MNN5 C-terminal 12 aa] ... 0.648
AYEPFSFRAIIE [STV1 C-terminal 12 aa] ... 0.686
AGTDKNTHPSSQ [SNT2 C-terminal 12 aa] ... 0.692

Could you share which protein stability index value was measured for DNFMNNSDIFQN [TGL5 C-terminal 12 aa] ?
0.741

Could you share which protein stability index value was measured for SHHPHKNGKISF [YKR011C C-terminal 12 aa] ?
0.719

Could you share which protein stability index value was measured for KYFCDFLLDPEI [ECM14 C-terminal 12 aa] ?
0.741

Could you share which protein stability index value was measured for ENFNEVFEAIRS [RSC3 C-terminal 12 aa] ?
0.682

Could you share which protein stability index value was measured for DISVQQVKIASK [SPF1 C-terminal 12 aa] ?
0.682

----------
System: Saccharomyces cerevisiae
Experiment: protein stability index of tFT-peptide fusion (C-terminal peptide) (PSI (0-1 scale)); higher = more stable (slower turnover)
Conditions: genetic background: wild type; temperature: 30 C
Result type: protein stability index
Number, no unit, nothing else.

Request: protein stability index, test system Saccharomyces cerevisiae, entry `RKKEKKQKKKKG`
0.688

Request: protein stability index, test system Saccharomyces cerevisiae, entry `HMQCVFRSTHHR`
0.585

Request: protein stability index, test system Saccharomyces cerevisiae, entry `NYSINQKNRKKN`
0.737

----------
System: Saccharomyces cerevisiae
Test: protein stability index of tFT-peptide fusion (C-terminal peptide) (PSI (0-1 scale)); higher = more stable (slower turnover)
Settings: genetic background: wild type; temperature: 30 C
Let's look at some sequences and their measured protein stability index.

Some sequences with recorded protein stability index:
GFSEGRLTIPVY ... 0.455
PDCRPPLVRCLL ... 0.796
GVWLRTARRISK ... 0.688
PVCRQVGVRLVA ... 0.456
SSPPPPPPPPSP ... 0.746

Request: protein stability index, test system Saccharomyces cerevisiae, entry `KKNLKTKKRQNI`
0.66

Request: protein stability index, test system Saccharomyces cerevisiae, entry `PPPPSLAPRSAL`
0.724

Request: protein stability index, test system Saccharomyces cerevisiae, entry `EWACGRAGLKVV`
0.491

Request: protein stability index, test system Saccharomyces cerevisiae, entry `IYPPALLSSSFL`
0.709

Request: protein stability index, test system Saccharomyces cerevisiae, entry `PTSPPPPPPPPP`
0.657
